Every entry's value here was drawn from paper PMC9964323.

# Experimental Protocol: Cyclic voltammetry (reduction potentials)
# Type: physicochemical
# Run Conditions: second value of cell; DMF, 0.05 M Bu4NClO4, glass-carbon electrode, vs Ag/AgCl/KCl (sat.), 100 mV/s, C = 1 × 10^−1 mol L^−1

Compound | Ered, second reduction potential, V
[Cl-].[Cl-].[Ti+4].c1cc[cH-]c1.c1cc[cH-]c1 [Cp2TiCl2, Titanocene dichloride] | −1.85
[N-]=[N+]=Nc1ccc(C(=O)[O-])cc1.[N-]=[N+]=Nc1ccc(C(=O)[O-])cc1.[Ti+4].c1cc[cH-]c1.c1cc[cH-]c1 [2c] | −2.01
O=C([O-])c1c(F)c(F)c(F)c(F)c1F.O=C([O-])c1c(F)c(F)c(F)c(F)c1F.[Ti+4].c1cc[cH-]c1.c1cc[cH-]c1 [2e] | −1.81
O=C([O-])c1cccc(F)c1.O=C([O-])c1cccc(F)c1.[Ti+4].c1cc[cH-]c1.c1cc[cH-]c1 [2d] | −2.05
CC(=O)Oc1ccccc1C(=O)[O-].CC(=O)Oc1ccccc1C(=O)[O-].[Ti+4].c1cc[cH-]c1.c1cc[cH-]c1 [2f] | −2.11
O=C([O-])c1ccccc1.O=C([O-])c1ccccc1.[Ti+4].c1cc[cH-]c1.c1cc[cH-]c1 [2a] | −2.17
